Property: EC50; scope: individual molecules
Experiment: Inhibition of NS5A in HCV genotype 1b infected in […] cells assessed as reduction in viral replication incubated for 48 hrs by luciferase reporter gene assay
Express it in nM; write the number only.

{"Smiles data": "COC(=O)N[C@H](C(=O)N1[C@H](c2ncc(-c3ccc4c5ccc(-c6cnc([C@@H]7C[C@@H]8CCC[C@@H]8N7C(=O)[C@@H](NC(=O)OC)[C@@H](C)OC)[nH]6)cc5n(C)c4c3)[nH]2)C[C@@H]2CCC[C@@H]21)[C@@H](C)OC", "EC50 (nM)": 0.028}

// "COC(=O)N[C@H](C(=O)N1[C@H](c2ncc(-c3ccc4c(c3)Cc3cc(-c5cnc([C@@H]6C[C@@H]7CCC[C@@H]7N6C(=O)[C@@H](NC(=O)OC)[C@@H](C)OC)[nH]5)ccc3-4)[nH]2)C[C@@H]2CCC[C@@H]21)[C@@H](C)OC" : EC50 value = 0.022

// "COC(=O)N[C@H](C(=O)N1[C@H](c2ncc(-c3ccc4c(c3)S(=O)(=O)c3cc(-c5cnc([C@@H]6C[C@@H]7CCC[C@@H]7N6C(=O)[C@@H](NC(=O)OC)[C@@H](C)OC)[nH]5)ccc3-4)[nH]2)C[C@@H]2CCC[C@@H]21)[C@@H](C)OC" : EC50 value = 0.028

// "COC(=O)N[C@H](C(=O)N1CCC[C@H]1c1ncc(-c2ccc3c(c2)-c2ccc(-c4cnc([C@@H]5CCCN5C(=O)[C@@H](c5ccccc5)N(C)C)[nH]4)cc2-3)[nH]1)C(C)C" : EC50 value = 0.014

// "COC(=O)N[C@H](C(=O)N1[C@H](c2ncc(-c3ccc4c(c3)Cc3ccc(-c5cnc([C@@H]6C[C@@H]7CCC[C@@H]7N6C(=O)[C@@H](NC(=O)OC)[C@@H](C)OC)[nH]5)cc3C4)[nH]2)C[C@@H]2CCC[C@@H]21)[C@@H](C)OC" : EC50 value = 0.02

* * *

Experiment: Inhibition of NS5A in HCV genotype 1a infected in […] cells assessed as reduction in viral replication incubated for 48 hrs by luciferase reporter gene assay
Property: EC50; scope: individual molecules
Express it in nM; write the number only.

{"Molecule": "COC(=O)N[C@H](C(=O)N1[C@H](c2ncc(-c3ccc4c(c3)Oc3ccc(-c5cnc([C@@H]6C[C@@H]7CCC[C@@H]7N6C(=O)[C@@H](NC(=O)OC)[C@@H](C)OC)[nH]5)cc3O4)[nH]2)C[C@@H]2CCC[C@@H]21)[C@@H](C)OC", "Outcome measure": "EC50", "Value measured": 0.012}
{"Molecule": "COC(=O)N[C@H](C(=O)N1[C@H](c2ncc(-c3ccc4c(c3)-c3ccc(-c5cnc([C@@H]6C[C@@H]7CCC[C@@H]7N6C(=O)[C@@H](NC(=O)OC)C(C)C)[nH]5)cc3-4)[nH]2)C[C@@H]2CCC[C@@H]21)C(C)C", "Outcome measure": "EC50", "Value measured": 0.01}
{"Molecule": "COC(=O)N[C@H](C(=O)N1CCC[C@H]1c1ncc(-c2ccc3c(c2)-c2ccc(-c4cnc([C@@H]5CCCN5C(=O)[C@@H](NC(=O)OC)C(C)C)[nH]4)cc2-3)[nH]1)C(C)C", "Outcome measure": "EC50", "Value measured": 0.044}

// "COC(=O)N[C@H](C(=O)N1[C@H](c2ncc(-c3ccc4c(c3)S(=O)(=O)c3cc(-c5cnc([C@@H]6C[C@@H]7CCC[C@@H]7N6C(=O)[C@@H](NC(=O)OC)[C@@H](C)OC)[nH]5)ccc3-4)[nH]2)C[C@@H]2CCC[C@@H]21)[C@@H](C)OC" : EC50 value = 0.081

// "COC(=O)N[C@H](C(=O)N1[C@H](c2ncc(-c3ccc4c(c3)Cc3cc(-c5cnc([C@@H]6C[C@@H]7CCC[C@@H]7N6C(=O)[C@@H](NC(=O)OC)[C@@H](C)OC)[nH]5)ccc3-4)[nH]2)C[C@@H]2CCC[C@@H]21)[C@@H](C)OC" : EC50 value = 0.041

// "COC(=O)N[C@@H](CO)C(=O)N1[C@H](c2ncc(-c3ccc4c(c3)-c3ccc(-c5cnc([C@@H]6C[C@@H]7CCC[C@@H]7N6C(=O)[C@H](CO)NC(=O)OC)[nH]5)cc3-4)[nH]2)C[C@@H]2CCC[C@@H]21" : EC50 value = 0.055

// "COC(=O)N[C@H](C(=O)N1[C@H](c2ncc(-c3ccc4c(c3)CCc3cc(-c5cnc([C@@H]6C[C@@H]7CCC[C@@H]7N6C(=O)[C@@H](NC(=O)OC)[C@@H](C)OC)[nH]5)ccc3-4)[nH]2)C[C@@H]2CCC[C@@H]21)[C@@H](C)OC" : EC50 value = 0.017

// "COC(=O)N[C@H](C(=O)N1[C@H](c2ncc(-c3ccc4c(c3)Cc3ccc(-c5cnc([C@@H]6C[C@@H]7CCC[C@@H]7N6C(=O)[C@@H](NC(=O)OC)[C@@H](C)OC)[nH]5)cc3C4)[nH]2)C[C@@H]2CCC[C@@H]21)[C@@H](C)OC" : EC50 value = 0.03

// "COC(=O)N[C@H](C(=O)N1[C@H](c2ncc(-c3ccc4c(c3)-c3ccc(-c5cnc([C@@H]6C[C@@H]7CCC[C@@H]7N6C(=O)[C@@H](NC(=O)OC)[C@H](C)O)[nH]5)cc3-4)[nH]2)C[C@@H]2CCC[C@@H]21)[C@H](C)O" : EC50 value = 0.302

// "COC(=O)N[C@H](C(=O)N1[C@H](c2ncc(-c3ccc4c(c3)-c3ccc(-c5cnc([C@@H]6C[C@@H]7CCC[C@@H]7N6C(=O)[C@@H](NC(=O)OC)[C@@H](C)O)[nH]5)cc3-4)[nH]2)C[C@@H]2CCC[C@@H]21)[C@@H](C)O" : EC50 value = 0.011

// "CN(C)[C@@H](C(=O)N1CCC[C@H]1c1ncc(-c2ccc3c(c2)-c2ccc(-c4cnc([C@@H]5CCCN5C(=O)[C@@H](c5ccccc5)N(C)C)[nH]4)cc2-3)[nH]1)c1ccccc1" : EC50 value = 0.248

// "COC(=O)N[C@H](C(=O)N1[C@H](c2ncc(-c3ccc4c(c3)-c3ccc(-c5cnc([C@@H]6C[C@@H]7CCC[C@@H]7N6C(=O)[C@@H](NC(=O)OC)[C@@H](C)O)[nH]5)cc3-4)[nH]2)C[C@@H]2CCC[C@@H]21)C(C)C" : EC50 value = 0.013

// "COC(=O)N[C@H](C(=O)N1[C@H](c2ncc(-c3ccc4c(c3)-c3ccc(-c5cnc([C@@H]6C[C@@H]7CCC[C@@H]7N6C(=O)[C@@H](NC(=O)OC)[C@@H](C)OC)[nH]5)cc3-4)[nH]2)C[C@@H]2CCC[C@@H]21)[C@@H](C)OC" : EC50 value = 0.01

// COC(=O)N[C@H](C(=O)N1CCC[C@H]1c1nc(-c2ccc(-c3ccc(-c4c[nH]c([C@@H]5CCCN5C(=O)[C@@H](NC(=O)OC)C(C)C)n4)cc3)cc2)c[nH]1)C(C)C [BMS-790052] : EC50 value = 0.032

// "COC(=O)N[C@H](C(=O)N1[C@H](c2ncc(-c3ccc4c(c3)-c3ccc(-c5cnc([C@@H]6C[C@@H]7CCC[C@@H]7N6C(=O)[C@@H](NC(=O)OC)[C@@H](C)OC)[nH]5)cc3-4)[nH]2)C[C@@H]2CCC[C@@H]21)[C@@H](C)O" : EC50 value = 0.014

// "COC(=O)N[C@H](C(=O)N1CCC[C@H]1c1ncc(-c2ccc3c(c2)-c2ccc(-c4cnc([C@@H]5CCCN5C(=O)[C@@H](c5ccccc5)N(C)C)[nH]4)cc2-3)[nH]1)C(C)C" : EC50 value = 0.053

// "COC(=O)N[C@H](C(=O)N1CCC[C@H]1c1ncc(-c2ccc3c(c2)-c2ccc(-c4cnc([C@@H]5C[C@@H]6CCCC[C@@H]6N5C(=O)[C@@H](NC(=O)OC)C(C)C)[nH]4)cc2-3)[nH]1)C(C)C" : EC50 value = 0.009
